We begin with a simple list: items and their reported inhibition.
- measurementNotes: growth suppression of yeast trafficking mutant, preliminary HTS, modulators of trafficking downstream of Golgi apparatus project, 1536-format plate, OD 615 nm (AID 637)
- conditionSummary: yeast transport mutant growth, absorbance 615 nm, 18 h; stronger effect = higher value

compoundSmiles	inhibition (%)
C=CCOC(=O)CCC(=O)Nc1cc(OC)nc(OC)n1	8.73
Cc1nn(-c2ccc(Cl)cc2)c2sc(C(=O)N3CCN(c4ccccn4)CC3)cc12	-2.54
O=C(CSc1nnc(Cn2nnc(-c3ccccc3)n2)n1-c1ccccc1)Nc1ccc(F)cc1	13.4
CCOC(=O)N1CCN(C(=O)CN2C(=O)COc3ccc(C)cc32)CC1	6
CN(C)c1nc(N)nc(-c2nc3ccccc3s2)n1	-1.64

---

- measurementNotes: reducers of endogenous Her2 protein level, primary screen, SKBR3 breast tumor cells, AlphaScreen, ATP viability (AID 461);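 note: percent of carrier control wells set as 100% viability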
- conditionSummary: 18-24 h, measured here: SKBR3 viability, ATP luminescence, at 10 µM

compound	viability / %
CC(=O)C1=C(C)NC(C)=C(C(C)=O)C1c1cccs1	99
Cc1nc(N2CCOCC2)[nH]c(=O)c1CCC(C)C	120
O=C(CN1CCCN(S(=O)(=O)c2ccc(Br)cc2)CC1)Nc1ccc2cn[nH]c2c1	106
COc1ccc(Br)cc1CNC(=O)C1CCCN(S(C)(=O)=O)C1 (configuration not stated)	78
CCCCOCCCNC(=O)c1ccccc1OCC	89
Cc1cc(Oc2ccccc2)nc(-c2ccccc2)n1	100
CCOC(=O)C(NC(=O)C1CCCN1C(=O)OCc1ccccc1)C(=O)OCC (configuration not stated)	104
Cc1ccc(-c2cc(C(=O)N3CCCC3)no2)cc1	93.5
Cc1oc2c(CN3CCCC3)c(O)ccc2c(=O)c1-c1ccccc1	88.5
COCCn1c(COc2ccc(Cl)cc2)nnc1SCC(N)=O	85.5
CCOCC(=O)Nc1sc2c(c1C(=O)OCC)CCCC2	89
COc1cc(OC)c(C(=O)Nc2ccc(N(C)C)cc2)cc1OC	111
Cc1nc2ccc(CCO)cc2s1	97.5
Cc1nc2ccc(NC(=O)N3CCOCC3)cc2s1	87.5
O=C(c1ccccc1)c1ccc(N2CCOCC2)c(NC(=O)c2ccco2)c1	82.5
CC(=O)N1CCc2cc(S(=O)(=O)NCCC3=CCCCC3)ccc21	108
COc1ccc(-n2c(Cc3cccn3C)nnc2SCC(=O)NCC2CCCO2)cc1 (configuration not stated)	100

---

- measurementNotes: SK-BR-3 cell growth inhibitors, pilot screen, 24 h, human (AID 572);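 note: compound exposure lasted between 18 and 24 h rather than exactly 24 h; 100% = carrier-treated control wells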
- conditionSummary: SK-BR-3 viability, CellTiter-Glo luminescence, at 10 µM, stronger effect = lower value

molecule	units	viability
CCc1ccc(NC(=O)CSc2nnc(Cc3cccn3C)n2-c2ccc(OC)cc2)cc1	%	86
C/C(=C\c1cc(C(=O)O)c(C)o1)CO	%	102
COc1ccccc1NC(=O)CSc1nnc(CC(=O)Nc2ccccc2)n1C	%	96
c1csc(-c2nc3nc4ccccc4nc3n2Cc2ccc3c(c2)OCO3)c1	%	98.5
Cc1cccc2cc(CN(Cc3nnnn3Cc3ccccc3)C3CCCC3)c(=O)[nH]c12	%	85
COc1ccc(C)cc1NC(=O)CN(Cc1nnc(-c2ccc(Cl)cc2)o1)C1CCCC1	%	89
CN=C(Nc1cc(C)nn1-c1ccccc1)c1ccccc1	%	93
O=C(CSc1nnc2scc(-c3ccccc3)n12)N1CCN(Cc2ccccc2)CC1	%	89
CCC(=O)c1ccc(OCC(O)CN2CCN(S(=O)(=O)N3CCCCC3)CC2)cc1 (configuration not stated)	%	91
CCn1c(CC(=O)Nc2cccc(OC)c2)nnc1SCC(=O)Nc1nccs1	%	98
CCN(CC)S(=O)(=O)c1cccc(-c2nnc(SCC(N)=O)n2CCc2ccccc2)c1	%	102
CCOC(=O)CSc1cn2c(n1)CCC2	%	99.5
O=C(CN1CCCN(S(=O)(=O)c2ccc(Br)cc2)CC1)Nc1ccc2cn[nH]c2c1	%	106
COc1cc(NC2=CC(=O)CC(C)(C)C2)cc(OC)c1	%	77
CCCCCOC(=O)C1=C(C)N(C)C(=O)NC1c1cc(Br)c(O)c(OC)c1 (configuration not stated)	%	114
COc1ccc(CN(C(=O)c2cccs2)c2nccs2)cc1OC	%	74
CCOc1nc(SCCOc2ccccc2)nc(N(C)C)n1	%	96

---

- measurementNotes: HUVEC growth inhibition – cell-based, human, primary screen (AID 575);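 note: 100% = median of untreated cell wells with 0.1% DMSO on each plate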
- conditionSummary: HUVEC proliferation, CellTiter-Glo luminescence, 72 h; at 10 µM; stronger effect = lower value

compoundSmiles	units	viability
CCc1nc2scc(-c3ccccc3)c2c(=O)n1N	%	84
C/C(N)=C(\C#N)C(=O)NCCc1ccccn1	%	108
N#Cc1c(-c2ccccc2)nc(SCc2nc(N)nc(N3CCCCC3)n2)[nH]c1=O	%	81.5

---

- measurementNotes: reversal of MRP1-mediated doxorubicin resistance, pilot screen, H69AR cells, doxorubicin co-treatment (AID 601)
- conditionSummary: H69AR cells, CellTiter-Glo, 72 h; compound alone cytotoxicity; at 10 µM
Cut-off 90% on viability: below means met, at or above means not met.

molecule	assignedClass
CC1CCC(C(=O)NC(C(=O)NCCN2CCC(C)CC2)C(C)C)CC1 (configuration not stated)	met
CC(=O)c1cccc(NC(=O)c2ccc(NS(C)(=O)=O)cc2)c1	met
CC(C)=CC/C=C1\CCC(C(=O)O)C(C(=O)O)C1 (configuration not stated)	not met
Oc1cnc2ccccc2c1CN1CCOCC1	not met
CC(C)Oc1ccc(N2CC(C(=O)Nc3ccccc3F)CC2=O)cc1 (configuration not stated)	not met

---

- measurementNotes: reversal of MRP1-mediated doxorubicin resistance, pilot screen, H69AR cells, doxorubicin co-treatment (AID 601)
- conditionSummary: H69AR cells + 2 uM doxorubicin, CellTiter-Glo, 72 h; measured here: viability with 2 uM doxorubicin; at 10 µM; stronger effect = lower value

compound	units	viability
O=S(NCc1ccco1)C12CC3CC(CC(C3)C1)C2 (stereo not given)	%	84
CCCN1C(=O)SC(CC(=O)Nc2ccc(Br)cc2)C1=O (stereo not given)	%	91.2
O=C(CN1C(=O)c2ccccc2C1=O)Nc1ccccc1C(=O)N1CCCC1	%	89
O=C(NCc1cccs1)C1CCN(S(=O)(=O)c2cccs2)CC1	%	74.6
O=C(COc1ccccc1Cl)NCc1ccco1	%	91.6

---

- measurementNotes: SK-BR-3 cell growth inhibitors, pilot screen, 24 h, human (AID 572);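 note: compound exposure lasted between 18 and 24 h rather than exactly 24 h; 100% = carrier-treated control wells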
- conditionSummary: SK-BR-3 viability, CellTiter-Glo luminescence, at 10 µM, stronger effect = lower value
Square brackets hold non-standard residues; d marks the D form. Peptide text beside a SMILES is read from it. * marks the point of attachment. ξ: configuration not given here. Cbz = O=C(OCc1ccccc1)*; ξK = NCCCCC(N)C(=O)O
The entries below come with measured viability values attached.
endpointName: viability (%)

compound	recordedNumber
CC(C(=O)N1CCOCC1)N1c2cccc3cccc(c23)S1(=O)=O (stereo unspecified)	101
NCc1cccc(-n2cccn2)c1	110
CCC(=O)OCCn1c(=O)c2cc3c(=O)n(CCOC(=O)CC)c(=O)c3cc2c1=O	99
COC(=O)C(CCCCNC(=O)OCc1ccccc1)NC(=O)CN (stereo unspecified) (H-Gly-[ξK](Cbz)-OMe)	109
CC1(c2ccc(Cl)cc2)NC(=O)N(CC(=O)NC(=O)NCc2ccco2)C1=O (stereo unspecified)	96
COc1ccc(CCNC(=O)c2cc(-c3cc(C)c(C)cc3O)n[nH]2)cc1OC	93.5
COc1cc(CN2CCN(C(=O)CC(C)C)CC2)cc(OC)c1O	114
Cc1ccccc1NS(=O)(=O)c1cc(S(C)(=O)=O)ccc1Cl	96
COc1ccc(N2C(=O)CC(NC3CC3)C2=O)cc1 (stereo unspecified)	100
CCOC(=O)c1nnn(CC(=O)Nc2cccc(F)c2)c1C(=O)OCC	112
CCCCc1noc2c1/C(=N\O)CC(c1ccccc1)C2 (stereo unspecified)	86
O=C(O)CCNc1nc(-c2ccccc2)nc2ccccc12	87
O=C(O)C1CC(=O)N(c2ccc(OCc3ccccc3Cl)cc2)C1 (stereo unspecified)	83
CCCCOc1ccc(CSc2n[nH]c(C)n2)cc1	83.5
O=S(=O)(c1cccc(-c2nnco2)c1)N1CCCC1	100
O=C1CC(=O)N(Cc2cccs2)C(=O)N1	93.5
CS(=O)(=O)N1CCN(CC2CC3C=CC2C3)CC1 (stereo unspecified)	110
COc1ccc(C(=O)NCCSc2ccccn2)cc1	97
CCN1C(=O)c2cccc3c(NC(=O)c4ccc5c(c4)OCCO5)ccc1c23	108
Cc1ccc(-c2nnn(CC(=O)N(Cc3cccs3)C(C(=O)NC(C)(C)C)c3ccc(C)o3)n2)o1 (stereo unspecified)	86.5
Cc1ccc(S(=O)(=O)NCCNC(=O)c2ccccc2)cc1	99

---

- measurementNotes: SK-BR-3 cell growth inhibitors, pilot screen, 24 h, human (AID 572);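 note: compound exposure lasted between 18 and 24 h rather than exactly 24 h; 100% = carrier-treated control wells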
- conditionSummary: SK-BR-3 viability, CellTiter-Glo luminescence, at 10 µM, stronger effect = lower value

molecule	units	viability
N#CC1=C(N)N(c2ccccc2)C2=C(C(=O)CCC2)C1c1cccs1 (stereo unspecified)	%	96.5
O=C1NC(c2ccccc2)(C(F)(F)F)SC2=CCCCCN12 (stereo unspecified)	%	90.5
COc1ccc(-n2c(SCC#N)nc3ccccc3c2=O)cc1	%	77
NC(=O)c1c(NC(=O)CN2CCCC2)sc2c1CCCC2	%	104
CCCC(=O)Nc1cccc(NC(=O)CN2CCN(c3ccccc3OC)CC2)c1	%	98.5
COc1ccccc1NC(=O)c1cc2n(n1)C(C(F)(F)F)CC(c1ccc3c(c1)OCO3)N2 (stereo unspecified)	%	85
Cc1nc2cc(-n3ccc(=O)cc3)ccc2n1-c1ccccc1	%	102
CCC(=O)N1CCN(CCN=CC2=C(O)CC(C)(C)CC2=O)CC1	%	90.5
CN(Cc1ccco1)C(=O)Cn1c(=O)oc2cc(S(=O)(=O)NCc3ccccc3)ccc21	%	92
N=c1c(C(=O)NCc2ccc(F)cc2)cc2c(=O)n3ccccc3nc2n1CCCN1CCOCC1	%	95
CCOC(=O)Cn1c(S(=O)(=O)Cc2ccccc2)nc2ccccc21	%	86
Cc1ccc(SCCNS(=O)(=O)c2ccc(F)cc2)cc1	%	85
O=C(/C=N/O)NCc1ccncc1	%	100
Cc1nnc(SCC(=O)N(C(C)C)C(C)C)nc1C	%	75.5
COCCNC(=O)C(c1ccc(C)o1)N(Cc1ccc(OC)cc1)C(=O)Cn1nnc2ccccc21 (stereo unspecified)	%	102
C=CCn1c(-c2ccccc2)c[nH]c1=S	%	91
CC(=O)Nc1ccc(Oc2cc(C#N)c(C#N)cc2N2CCCCCC2)cc1	%	108
COC(=O)c1ccc(NC(=O)C(C)N2C(=O)c3ccccc3C2=O)cc1 (stereo unspecified)	%	109
COc1ccc2nc(N3CCC(C)CC3)c(C#N)cc2c1	%	108
CC(=O)C1=C(O)C(=O)N(Cc2ccco2)C1c1ccc(F)cc1 (stereo unspecified)	%	102
CCc1cccc2c(=O)c(C(=O)NCCN3CCOCC3)c[nH]c12	%	104
CCC(C)(C)n1nnnc1C(c1ccc(OC)c(OC)c1)N1CCN(c2ccc(F)cc2)CC1 (stereo unspecified)	%	80
CCOC(=O)C(NC(=O)OC(C)C)(Nc1nccs1)C(F)(F)F (stereo unspecified)	%	89.5
CCOc1ccc(-n2c(=O)cc(N3CCN(c4ccccc4)CC3)[nH]c2=O)cc1	%	94
O=C(c1ccc(Cl)cc1)N1CCCCC(Sc2nnc(-c3ccc4c(c3)OCO4)o2)C1=O (stereo unspecified)	%	118
Fc1ccccc1-c1nc(NCCCN2CCOCC2)c2ccccc2n1	%	94
CC(=O)N1CCc2cc(S(=O)(=O)NC(CC(C)C)C(=O)N3CCn4c3nc3ccccc34)ccc21 (stereo unspecified)	%	88.5
Cc1cc(O)c(C2(C(F)(F)F)NCCNC2=O)cc1C (stereo unspecified)	%	100
CC(C)NC(=O)CSc1nc2ccccc2n1-c1ccccc1	%	88.5
CC(=O)NC(=O)NC1CSCC1OC(C)=O (stereo unspecified)	%	112
Cc1ccc(NC(=O)CSc2nnc(Cc3cccn3C)n2-c2ccc(F)cc2)cc1	%	82.5
